experimental target: is-octβ2R T115^3.37A mutant (Ixodes scapularis, UniProt A0ACM8E5E8, T115A)
protocol description: TGFα shedding assay, mutant T115^3.37A
Format: cell-based
experimental setup: read-out: EC50
attribute measured: EC50 (nM)
Enter your answer as a number in nM; do not include the unit.

Short answer for CN/C=N/c1ccc(C)cc1C [DPMF] : EC50 was 5

====

experimental target: is-octβ2R N87^2.61S mutant (Ixodes scapularis, UniProt A0ACM8E5E8, N87S)
Sequence (A0ACM8E5E8 1-384 N87S): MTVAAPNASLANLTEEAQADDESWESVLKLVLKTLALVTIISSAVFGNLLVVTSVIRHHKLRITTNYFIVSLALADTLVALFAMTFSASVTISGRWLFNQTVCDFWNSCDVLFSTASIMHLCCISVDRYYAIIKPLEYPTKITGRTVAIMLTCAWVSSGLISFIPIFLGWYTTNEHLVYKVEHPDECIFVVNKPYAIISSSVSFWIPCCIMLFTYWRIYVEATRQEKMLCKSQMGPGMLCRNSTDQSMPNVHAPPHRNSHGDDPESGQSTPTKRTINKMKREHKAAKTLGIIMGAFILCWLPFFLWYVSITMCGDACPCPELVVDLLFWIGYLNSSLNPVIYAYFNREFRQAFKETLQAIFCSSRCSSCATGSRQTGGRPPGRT
protocol description: TGFα shedding assay, amitraz-resistant mutant N87^2.61S
experimental setup: Table S4
attribute measured: pEC50
Formally, pEC50 is defined as -log10 of the concentration c, with c in mol/L.

{"columns": ["compound", "pEC50"],
 "data": [
  ["Cc1ccc(/N=C/N(C)/C=N/c2ccc(C)cc2C)c(C)c1", 7.30]
]}

Short answer for `CN/C=N/c1ccc(C)cc1C` : pEC50 was 8.10

Short answer for NCC(O)c1ccc(O)cc1 (stereo not drawn) : pEC50 was 8.00
